Test system: female stress-derived axillary odor
procedure text: Cross-adaptation of female stress-derived axillary odor (odor panel, magnitude estimation of perceived intensity); also: key: best: Best = Superior Cross-Adaptation; good: Good = Adequate Cross-Adaptation; poor: Poor = Ineffective Cross-Adaptation
Type: in vivo, human
experimental context: female stress-derived odor perceived by men
readout type: Magnitude of Reduction of Intensity of Female Stress-Derived Odor (FSDO), Males

[
  {
    "compound": "C=CCc1ccc(O)c(OC)c1 [Eugenol, 2-methoxy-1-hydroxy-4-allylbenzene]",
    "test result": "good"
  },
  {
    "compound": "CC(C=O)Cc1ccc(C(C)(C)C)cc1 (centres unmarked)",
    "test result": "good"
  },
  {
    "compound": "CCOC(=O)C=C(C)CC (single isomer, unassigned) [Z-isomer of 3-methyl-2-pentenoic acid ethyl ester, 3-methyl-2-pentenoic acid ethyl ester]",
    "test result": "poor"
  },
  {
    "compound": "O=C1CCCC=CCCCCCCCCCC1",
    "test result": "good"
  },
  {
    "compound": "CC/C=C\\CCO [Cis-3-Hexenol, cis-3-hexenol-1-ol]",
    "test result": "best"
  }
]
